All values here come from PubChem BioAssay (NCI).

Test system: HCT-15 colon
Assay: NCI tumour cell line growth inhibition, 48 h
Where a SMILES comes first, the peptide text is derived from it.
Exercise: state measured GI50 for each of the compounds provided.

Query: State measured GI50 of the compound `O=C(NNC(=O)c1ccccc1S)c1ccccc1S` with HCT-15 colon.
Reply: 7.97 µM

Query: Lab note: HCT-15 colon assay, enter GI50 for `COc1cc(-c2cc(-c3nc4ccc(F)cc4[nH]3)[nH]n2)cc(OC)c1OC` here
Reply: 2.79 µM

Query: Lab note: record GI50 of `CC(=O)/C(=C\c1c(-c2ccccc2)[nH]c2ccccc12)S(C)(=O)=O` tested on HCT-15 colon.
Reply: 1.93 µM

Query: // fetch GI50; item: `Cn1cc(C2=C(n3ccc4ccccc43)C(=O)NC2=O)c2ccccc21` ; system: HCT-15 colon
Reply: > 25 µM

Query: Using HCT-15 colon as the test system, report measured GI50 of CCC(C)C1NC(=O)C(CCCCN)NC(=O)C(CCCCN)NC(=O)C(CC(C)C)NC(=O)C(CCCCN)NC(=O)C(C(C)CC)NC(=O)C(C(C)C)NC(=O)C(C(C)CC)NC(=O)C(CCCCN)NC(=O)C(CCCCN)NC(=O)C(C)NC(=O)C(CCCCN)NC(=O)C(CC(C)C)NC1=O (stereo not given) (cyclo(AKKIVIKLKKILK); configuration not given here) .
Reply: 1.6 µM

Query: Give GI50; test system HCT-15 colon; compound `O=Cc1cn(Cc2ccccc2)c2ccccc12`
Reply: 52.4 µM

Query: Give GI50 for this entry on HCT-15 colon: `O=C1c2ccccc2S(=O)(=O)N1CSC(=S)N1CCOCC1`
Reply: > 100 µM

Query: Enter recorded GI50 with HCT-15 colon for `COc1ccc(/C=C/C(=O)Nc2cc(/C=C\c3cc(OC)c(OC)c(OC)c3)cc(OC)c2OC)cc1OC` here.
Reply: 3.58 µM

Query: Please report GI50 with HCT-15 colon for item `CCCCCCCCCCCCCCCC(=O)Nc1ccn([C@@H]2O[C@H](CO)[C@@H](O)[C@@H]2C#N)c(=O)n1` .
Reply: 50.8 µM

Query: System HCT-15 colon. Read-out GI50. Item `CC[O-].CC[O-].CN(C)c1ccc([O-])cc1.CN(C)c1ccc([O-])cc1.[Ti+4]` . Report value.
Reply: 61.4 µM

====

System: M14 melanoma
Experiment: NCI tumour cell line growth inhibition, 48 h
Readout: TGI

Query: Supply TGI measured with M14 melanoma for `COc1ccc(/C=C2\C(=O)NC(=O)c3ccccc32)cc1OC` .
Reply: > 100 µM

Query: Enter TGI (test system M14 melanoma) for `CCCCCCCC/C(=C\C1=C(C)C(=O)C(OC)=C(OC)C1=O)C(=O)O`
Reply: > 100 µM

Query: Report its TGI with M14 melanoma as the test system: `NC(N)=N/N=C(\c1ccc(F)cc1)c1ccc(C(F)(F)F)cc1`
Reply: 1.35 µM

Query: Send back M14 melanoma TGI of Cc1ccc(S(=O)(=O)C2=C([Si](C)(C)C)C3CC2[C@@H]2C4C=CC(CC4)[C@H]32)cc1 (stereo partly drawn) only.
Reply: > 100 µM

Query: Report TGI from M14 melanoma testing of `Cc1ccc(C(=O)N/N=C(\N=Nc2cccc(C)c2)c2ccc(N(CCC#N)CCC#N)cc2C)cc1`
Reply: > 100 µM

Query: State the measured TGI (M14 melanoma) of `Cn1cc(C2=C(n3ccc4ccccc43)C(=O)NC2=O)c2ccccc21`
Reply: > 25 µM

Query: Please tell me the measured TGI for `O=S(=O)(Nc1ccc2ccccc2c1)N1CCCCC1` ; system: M14 melanoma.
Reply: 25.5 µM

Query: Look up and report measured TGI (M14 melanoma) for the following molecule: `CN(C)N=Nc1cn[nH]c1C(N)=O`
Reply: > 100 µM

Query: Specify the recorded TGI for CCCCCCCCCCCCCCCC(=O)Nc1ccn(C2CC(OP(=O)(O)OCC3OC(n4cc(F)c(=O)[nH]c4=O)CC3OC(C)=O)C(CO)O2)c(=O)n1 (stereo not drawn) , system: M14 melanoma.
Reply: > 39.7 µM

Query: // output TGI; input `NS(=O)(=O)c1ccc(N=Nc2c(O)[nH]c3ccc(Cl)cc23)cc1` ; system M14 melanoma
Reply: > 25 µM

Query: Enter recorded TGI with M14 melanoma for `C=C1CC[C@]2(C)[C@H](CC[C@@]34C[C@@H](CC[C@H]32)[C@@H](C(=O)O)C4)C1(C)C` here.
Reply: > 12.5 µM

Query: Find the measured TGI of CC(=O)OC1COC(n2nc(N)nc2C)C(OC(C)=O)C1OC(C)=O (stereo not drawn) with M14 melanoma as test system.
Reply: > 100 µM

Query: Fill in TGI for `CN(C)[C@@H]1C(=O)C(C(=O)NCN2CCN(C(=N)N=C(N)N)CC2)=C(O)[C@@]2(O)C(=O)C3=C(O)c4c(O)cccc4[C@@](C)(O)[C@H]3C[C@@H]12` tested with M14 melanoma.
Reply: 1.14 µM

Query: State recorded TGI with M14 melanoma, entry `CCOC(=O)c1cc2c([nH]1)c(OC(C)=O)cc1c2ccn1Cc1ccccc1` , no comment.
Reply: > 100 µM

Query: Provide measured TGI on M14 melanoma for `COc1ccc(/C=C/C(=O)Nc2cc(/C=C\c3cc(OC)c(OC)c(OC)c3)cc(OC)c2OC)cc1OC` please.
Reply: > 100 µM

Query: Find the measured TGI of COc1cc2c(cc1OCCCC(=O)Nc1cc(C(=O)Nc3cc(C(=O)Nc4cc(C(=O)NCCCN(C)C)n(C)n4)n(C)c3)n(C)c1)N=CC1CCCN1C2=O (stereo not drawn) with M14 melanoma as test system.
Reply: 72.2 µM

Query: Report TGI under test system M14 melanoma for COC(=O)C(/C(=N/NC(N)=O)C(=O)Nc1c(C)cccc1C(C)(C)C)c1nc2ccc(Cl)cc2[nH]c1=O (stereo not drawn) .
Reply: > 100 µM

Query: Fill in TGI for CN(C)CCNC(=O)C1COc2cc(-c3cc(=O)c4ccccc4o3)ccc2O1 (stereo not drawn) tested with M14 melanoma.
Reply: 32 µM
